tested on: 292921-168-R-J2-PDC KRAS tumor spheroid viability; test: Anticancer human tumor 292921-168-R-J2-PDC patient-derived pancreatic carcinoma cell line growth inhibition [KRAS2]; conditions: compound 0.1 µM; stronger effect = lower value; spheroids with HUVEC and MSC
measured-endpoint: viability, T/C

COc1cc(OC)cc(N(CCNC(C)C)c2ccc3ncc(-c4cnn(C)c4)nc3c2)c1; 77.1% [middle of 5 runs]
Cn1ncnc1[C@H]1c2n[nH]c(=O)c3cc(F)cc(c23)N[C@@H]1c1ccc(F)cc1; 74.5% [middle of 5 runs]
CC(C)NCC(C(=O)N1CCN(c2ncnc3c2C(C)CC3O)CC1)c1ccc(Cl)cc1 (stereo unspecified); 88.5% [middle of 5 runs]
CC1COCCN1c1cc(-c2ccnn2C)c2ccnc(-c3ccn[nH]3)c2n1 (stereo unspecified); 16.1% [middle of 5 runs]
CC1(C)CCC(CN2CCN(c3ccc(C(=O)NS(=O)(=O)c4ccc(NCC5CCOCC5)c([N+](=O)[O-])c4)c(Oc4cnc5[nH]ccc5c4)c3)CC2)=C(c2ccc(Cl)cc2)C1; 98.2% [middle of 5 runs]
CN(C)C/C=C/C(=O)Nc1cc2c(Nc3ccc(F)c(Cl)c3)ncnc2cc1O[C@H]1CCOC1; 70.9% [middle of 5 runs]
COc1cc2nccc(Oc3ccc(NC(=O)C4(C(=O)Nc5ccc(F)cc5)CC4)cc3)c2cc1OC; 99.3% [middle of 5 runs]
Cn1nccc1Nc1nccc(-c2cc3c(s2)C(C)(C)N(CCN2CCOCC2)C3=O)n1; 45.7% [middle of 5 runs]
COc1cc(Nc2ncc3c(n2)-c2ccc(Cl)cc2C(c2c(F)cccc2OC)=NC3)ccc1C(=O)O; 28% [middle of 5 runs]
CC(C)n1nc(-c2ccc3oc(N)nc3c2)c2c(N)ncnc21; 22.6% [middle of 5 runs]
CC(=O)OC12COC1CC(O)C1(C)C(=O)C(O)C3=C(C)C(OC(=O)C(O)C(NC(=O)OC(C)(C)C)c4ccccc4)CC(O)(C(OC(=O)c4ccccc4)C21)C3(C)C (stereo unspecified); 12.4% [middle of 5 runs]

---

test system: 292921-168-R-J2-PDC KRAS tumor spheroid viability; assay: Anticancer human tumor 292921-168-R-J2-PDC cell line growth inhibition [KRAS2]; conditions: second compound 3.16 µM; first compound 10 µM; spheroids with HUVEC and MSC; active = viability on the fitted dose curve at most 10% of control; inactive = the rest;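 further: drug exposure lasted seven days after spheroids formed for three days; percent of DMSO vehicle control viability which is 100%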
Possible outcomes: t (active), f (inactive)

CC1OCC2(CCN(c3cnc(Sc4ccnc(N)c4Cl)c(N)n3)CC2)C1N (stereo unspecified) + CNCc1ccccc1-c1csc(C(C)Nc2nc(C)nc3cc(OC)c(OC)cc23)c1; t
CC1OCC2(CCN(c3cnc(Sc4ccnc(N)c4Cl)c(N)n3)CC2)C1N (stereo unspecified) + C=CC(=O)N1CCN(c2nc(OCC3CCCN3C)nc3c2CCN(c2cccc4cccc(C)c24)C3)CC1CC#N; t
Cn1nccc1Nc1nccc(-c2cc3c(s2)C(C)(C)N(CCN2CCOCC2)C3=O)n1 + CC1OCC2(CCN(c3cnc(Sc4ccnc(N)c4Cl)c(N)n3)CC2)C1N; t
CC1OCC2(CCN(c3cnc(Sc4ccnc(N)c4Cl)c(N)n3)CC2)C1N (stereo unspecified) + COc1cc2nc(C)nc(NC(C)c3cc(N)cc(C(F)(F)F)c3)c2cc1OC1CCOC1; f
O=C(c1cc(Cc2n[nH]c(=O)c3ccccc23)ccc1F)N1CCN(C(=O)C2CC2)CC1 + C=CC(=O)N1CCN(c2nc(OCC3CCCN3C)nc3c2CCN(c2cccc4cccc(C)c24)C3)CC1CC#N; t
CCNC(=O)CC1N=C(c2ccc(Cl)cc2)c2cc(OC)ccc2-n2c(C)nnc21 (stereo unspecified) + C=CC(=O)N1CCN(c2nc(OCC3CCCN3C)nc3c2CCN(c2cccc4cccc(C)c24)C3)CC1CC#N; t
